studyTarget: chimeric BTLA of humanised-BTLA mice (human extracellular region, murine transmembrane and signaling … (human; mouse, UniProt Q7TSA3 184-306, limits assumed)
Sequence (Q7TSA3 other isoform, or with tags, fused parts or gaps mutant limits assumed): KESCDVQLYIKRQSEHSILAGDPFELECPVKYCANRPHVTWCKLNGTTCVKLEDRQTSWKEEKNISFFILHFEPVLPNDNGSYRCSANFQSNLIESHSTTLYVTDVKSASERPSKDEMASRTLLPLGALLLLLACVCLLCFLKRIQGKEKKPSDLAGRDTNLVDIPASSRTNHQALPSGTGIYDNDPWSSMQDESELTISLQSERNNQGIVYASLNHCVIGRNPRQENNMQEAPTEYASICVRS
measurementProtocol: cell-based or functional assay
Assign AntiCD3/CD28 (CD69+ CD4 T cells) repeat 1, % inhibition to each entry below.
Reply numerically in %, unit not repeated.

Consider the binder shown here: 8B4 (antibody, IgG1, V domains shown) VH: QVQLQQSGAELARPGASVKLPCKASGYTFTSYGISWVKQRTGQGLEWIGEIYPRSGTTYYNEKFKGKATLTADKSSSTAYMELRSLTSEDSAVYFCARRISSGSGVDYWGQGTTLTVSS VL: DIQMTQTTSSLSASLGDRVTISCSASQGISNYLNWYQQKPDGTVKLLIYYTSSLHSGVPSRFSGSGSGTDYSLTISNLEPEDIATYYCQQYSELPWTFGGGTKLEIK What is its recorded AntiCD3/CD28 (CD69+ CD4 T cells) repeat 1, % inhibition?
51

Consider the binder shown here: 4H4 (antibody, IgG1, V domains shown) VH: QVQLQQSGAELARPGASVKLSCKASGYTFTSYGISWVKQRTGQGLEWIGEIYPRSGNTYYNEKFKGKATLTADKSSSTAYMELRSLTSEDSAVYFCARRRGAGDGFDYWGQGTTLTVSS VL: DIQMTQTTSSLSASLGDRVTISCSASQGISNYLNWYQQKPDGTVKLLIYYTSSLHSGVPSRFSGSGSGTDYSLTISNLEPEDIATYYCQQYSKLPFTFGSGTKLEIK What is its recorded AntiCD3/CD28 (CD69+ CD4 T cells) repeat 1, % inhibition?
43

Consider the binder shown here: 7A1 (antibody, IgG1, V domains shown) VH: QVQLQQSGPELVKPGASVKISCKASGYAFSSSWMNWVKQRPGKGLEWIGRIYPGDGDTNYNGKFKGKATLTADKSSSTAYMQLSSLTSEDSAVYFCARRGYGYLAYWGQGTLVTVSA VL: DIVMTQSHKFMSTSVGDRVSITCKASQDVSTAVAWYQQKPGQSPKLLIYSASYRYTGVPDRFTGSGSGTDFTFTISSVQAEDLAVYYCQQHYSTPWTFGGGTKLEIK What is its recorded AntiCD3/CD28 (CD69+ CD4 T cells) repeat 1, % inhibition?
28
